Test: Measurement of Sodium Ion Channel Blocking Effects: In order to measure the sodium ion channel blocking effect, an IonFlux16 Auto patch clamp system (Fluxion, Inc.) and a plate for exclusive use were used. The cells were distributed in an extracellular solution (4 mM KCl, 138 mM NaCl, 1 mM MgCl2, 1.8 mM CaCl2, 5.6 mM glucose, 10 mM HEPES, pH 7.45), and then dispensed in the specified region of the plate, and each of the prepared compound samples was diluted at various concentrations, and then dispensed in the specified region of the plate.
Format: cell-based
Measured pIC50, listed per entry.
Give only the number. pIC50 is defined as minus log10 of concentration in molar units.

Sample answers from the record:
CNC1CCN(c2cc(OC(F)(F)F)ccc2Nc2c(F)cc(S(=O)(=O)Nc3cscn3)cc2F)C1 (centres undefined)
6.43
CC(=O)N[C@@H]1CCN(c2cc(F)ccc2Nc2ccc(S(=O)(=O)Nc3cscn3)cc2Cl)C1
5.18
CN(C)[C@@H]1CCN(c2cc(C(F)(F)F)ccc2Nc2cc(F)c(S(=O)(=O)Nc3cscn3)cc2Cl)C1
6.56

// next entry
Which pIC50 is reported for this compound? CNCCN(C)c1cc(OC)ccc1Nc1cc(F)c(S(=O)(=O)Nc2ncc(F)cn2)cc1Cl 6.33
